Test system: rodent lifetime carcinogenesis bioassay, tumor incidence TD50
Test: carcinogenic potency in animals, long-term in vivo studies, CPDB compilation (AID 1745844)
Settings: rat; strain Fischer 344; males; in drinking water; site: thyroid gland; lesion: follicular-cell carcinoma; dosed 103 weeks; study length 105 weeks
experimental-endpoint: TD50

Short answer for `Nc1ccc(Cc2ccc(N)cc2)cc1` : TD50 was 85.4 mg/kg/day

---

Tested on: rodent lifetime carcinogenesis bioassay, tumor incidence TD50
Assay: carcinogenic potency in animals, long-term in vivo studies, CPDB compilation (AID 1745844)
Details: rat; strain Osborne-Mendel; males; in drinking water; site: all sites; lesion: neurofibroma; dosed 104 weeks; study length 104 weeks
experimental-endpoint: TD50 (mg/kg/day)
Give bare numbers, in mg/kg/day.

For `ClC(Cl)Cl` on rodent lifetime carcinogenesis bioassay, tumor incidence TD50, measured TD50 was 2200
